Measurement protocol: Pharmacokinetics in whole blood, cynomolgus monkeys
Condition description: male, cynomolgus monkey, in vivo, 300 mg/kg, Fosmetpantotenate Mean Conc., male cynomolgus monkeys, fosmetpantotenate 300 mg/kg oral, blood, 0.5 hr
Assay endpoint: concentration at 0.5 h (nM)

> print(dat)
                                   compound          assay.endpoint  recorded.measurement
1  COC(=O)CCNC(=O)[C@H](O)C(C)(C)COP(=O)(N[C@@H](C)C(=O)OC)Oc1ccccc1 (mixture of isomers) [Fosmetpantotenate]  concentration at 0.5 h                   376

====

Measurement protocol: Pharmacokinetics in whole blood, CD-1 mice
Condition description: male, CD-1, mouse, whole blood, po, 100 mg/kg, Whole Blood Conc. of compound 3, CD-1 mice, single 100 mg/kg RE-024-02 PO, 2 hr, LLOQ 21.3 nM
Assay endpoint: concentration at 2 h (nM)

> print(dat)
                     structure.as.smiles        assay.endpoint  recorded.measurement
1  CC1(C)COP(=O)(O)O[C@H]1C(=O)NCCC(=O)O  concentration at 2 h                  23.7

Each recorded value in this set is attributed to paper PMC5844530.
